The origin of these recorded values is paper PMC9283540.

- Subject of test: TipsytheTRex repressor D104A (Mycobacteriophage TipsytheTRex (cluster A))
- Measurement protocol: EMSA
- Condition parameters: 0.25 uM labeled DNA; ~3.5-fold weaker than WT; EMSA: 20 mM Tris pH 7.0, 25 mM NaCl, 1 mM DTT, 100 ug/mL BSA, 5% glycerol, 0.25 uM FAM-DNA, room temperature 30 min, 5% native gel in 1x TAE
pKd: −log10 of the molar value.

>  <Sequence string>
ACGGCCCGCTTGACAGCCACCGAAACATCC (double strand) [30-bp optimal]

>  <pKd>
6.68

$$$$
